- targetUnderTest: Hmlalpha2 (UniProt P0CY09)
- Sequence: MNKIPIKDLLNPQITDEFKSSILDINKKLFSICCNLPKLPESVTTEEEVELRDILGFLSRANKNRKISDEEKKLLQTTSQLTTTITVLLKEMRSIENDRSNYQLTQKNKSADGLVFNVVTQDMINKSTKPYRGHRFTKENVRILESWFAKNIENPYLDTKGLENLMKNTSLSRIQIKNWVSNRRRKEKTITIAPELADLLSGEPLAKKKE
- method: PBM E-score (8-mer binding enrichment) (E-score (-0.5 to 0.5)); higher = stronger / more preferred TF binding
- conditionParameters: protein concentration: 200 nM; construct: GST-full length
In all, about 33,000 sequences were measured (“E-score (-0.5 to 0.5)”: median about -0.04, highest 2% from about 0.36 on). The sample as a whole holds a higher share of the highest values than the screen did.
propertyLabel: PBM E-score
Answers are plain numbers.

Sample records with PBM E-score:
[[record]]
inputsequence = "GTTACAAC"
targetundertest = "Hmlalpha2 (UniProt P0CY09)"
val = 0.258

[[record]]
inputsequence = "AAGCGGGG"
targetundertest = "Hmlalpha2 (UniProt P0CY09)"
val = -0.0783

[[record]]
inputsequence = "AAACACAT"
targetundertest = "Hmlalpha2 (UniProt P0CY09)"
val = 0.314

[[record]]
inputsequence = "ATTACGCA"
targetundertest = "Hmlalpha2 (UniProt P0CY09)"
val = 0.435

[[record]]
inputsequence = "ATGTTACG"
targetundertest = "Hmlalpha2 (UniProt P0CY09)"
val = 0.351


Batch request: PBM E-score per item, same order as input.
1. ATTACAAC
2. ATAGGCAC

[0.4, -0.216]

Quick request: PBM E-score for each listed item, please.
1. CACATTAC
2. AGGTTATA
3. ATTACGGG
4. ATACACAG
5. CTGTTATA
6. GTTGTACA

1: 0.375; 2: 0.0651; 3: -0.0184; 4: 0.408; 5: 0.29; 6: 0.424

For every listed record, write down its PBM E-score.
1. AAACCACC
2. ATGTTATG

-0.166
0.425

Here are 6 sequences. What values of PBM E-score were reported for them?
1. TCATACAA
2. CAATATAC
3. TACGTCGA
4. ATTGTACA
5. AAATACAC
6. ATTACAGA

1. 0.0397
2. 0.131
3. 0.0708
4. 0.403
5. 0.431
6. 0.333
